Tested on: U2OS
test_description: cell viability relative to DMSO; higher = less toxic
conditions: 72 h; 10000 nM
readout_name: cell viability

Previously resolved entries follow.
molecule	reading
CC(C)(O)CNc1nc(Nc2ccnc(C(F)(F)F)c2)nc(-c2cccc(C(F)(F)F)n2)n1	92%
FC(F)(F)c1ccccc1-n1ccnc1	103%
O=C(/C=C/c1cccnc1)NCCCCC1CCN(C(=O)c2ccccc2)CC1	0%
O=C(NCc1cccc(O)c1)Nc1nc(-c2ccncc2)cs1	61.8%

Exercise: Returns the measured cell viability for the input molecule. Input: Cn1c(=O)c2c(ncn2CCO)n(C)c1=O
Key: 98.4%

Exercise: Item under review: C[C@]12C=CC(=O)C=C1CC[C@@H]1[C@@H]2C(=O)C[C@@]2(C)[C@H]1CC[C@]2(O)C(=O)CO . Reported cell viability?
Key: 95%

Exercise: Given the entry COc1ccc(NC(=O)c2ccc(-c3ccc(-c4noc(C)n4)cc3C)cc2)cc1N1CCN(C)CC1 , report its measured cell viability.
Key: 54.2%

Exercise: Which cell viability value is on record for c1ccc2c(Cc3c[nH]c4ccccc34)c[nH]c2c1 ?
Key: 94.3%

Exercise: // lookup cell viability for COC(=O)C1=C(C#N)NC(C)=C(C(=O)OC(C)C)C1c1cccc([N+](=O)[O-])c1 (centres undefined)
Key: 104%

---

Test system: U2OS
test_description: cell viability relative to DMSO; higher = less toxic
conditions: 72 h; 10 nM
readout_name: cell viability (%)
Please respond with the number in % and leave the unit unwritten.

compound	readout_name	reading
CCCCN(CCCC)CCCOC(=O)c1ccc(N)cc1	cell viability	99.3

Exercise: Quick check: cell viability of N=C(C[C@@H](O)COc1ccccc1-c1ccccc1)N1CCCCC1 ?
Key: 103

Exercise: Any idea what cell viability was measured for O=S(=O)(/N=C/c1c(O)ccc2ccccc12)c1cccs1 ?
Key: 100

Exercise: Given the compound O=S(=O)(c1ccccc1)c1cnc2c(N3CCNCC3)cccc2c1 , what is its reported cell viability?
Key: 96.8

---

Tested on: U2OS
test_description: cell viability relative to DMSO; higher = less toxic
conditions: 72 h; 10000 nM
readout_name: cell viability (%)
Express the result in % but write the number alone.

compound	cell viability [%]
Nc1nc2c(c(N3CCNCC3)n1)CCC1=C2[C@@H]2CCCC[C@@H]2O1	101
CC(C)(C)C(=O)OCOC(=O)[C@@H]1N2C(=O)C[C@H]2S(=O)(=O)C1(C)C [sulbactam-pivoxil]	95.3
O=C(O)Cn1c2c(c3cc(F)ccc31)CN(C(=O)c1cccc3ccccc13)CC2 [setipiprant]	98.4

Exercise: State the recorded cell viability for this entry: O=S(=O)(/N=C/c1c(O)ccc2ccccc12)c1cccs1
Key: 103

Exercise: Reported cell viability, compound C[C@H](NCc1ccc(OCc2cccc(F)c2)cc1)C(N)=O [safinamide] : ____
Key: 108

---

System: HepG2
test_description: cell viability relative to DMSO; higher = less toxic
conditions: 72 h; 10 nM
readout_name: cell viability (%)
Response body: numeric value in %, unit text excluded.

molecule	cell viability [%]
N#Cc1ccc(Oc2ccc3c(c2)COB3O)cc1	105
COC(=O)[C@H](Cc1cccc(C(=N)N)c1)[C@@H](C)NC(=O)c1ccc(-c2cc[n+]([O-])cc2)cc1	103
Cc1cn(C[C@H](N)C(=O)O)c(=O)n(Cc2ccsc2C(=O)O)c1=O	91.3
CN1[C@@H]2CC[C@H]1C[C@@H](OC(c1ccc(F)cc1)c1ccc(F)cc1)C2	96.3
CCCCOc1ccc(C(=O)Nc2ccc(F)cc2F)cc1	98.2
CC(C)(C)C(=O)OCOP(=O)(COCCn1cnc2c(N)ncnc21)OCOC(=O)C(C)(C)C	93.8
NS(=O)(=O)c1ccc2c(c1)C1C=CCC1C(c1ccc(Br)cc1)N2 (stereo not given)	105
C[C@@H](Oc1cc(-n2cnc3ccc(CN4CCN(C)CC4)cc32)sc1C(N)=O)c1ccccc1C(F)(F)F	101
c1ccc2nc(N3CCNCC3)ccc2c1	97.8
CC(C)=CCC/C(C)=C/CNCCNC1C2CC3CC(C2)CC1C3 (stereo not given)	103

Exercise: Name the reported cell viability value associated with the molecule O=C(CCCCCCC(=O)Nc1ccccc1)NO
Key: 98.2

Exercise: Recorded cell viability for CCC(=O)O[C@]1(C(=O)CCl)[C@@H](C)C[C@H]2[C@@H]3C[C@H](F)C4=CC(=O)C=C[C@]4(C)[C@@]3(F)[C@@H](O)C[C@@]21C [halobetasol-propionate] , please?
Key: 93.9

Exercise: What cell viability value was documented for this molecule, CN1CC[C@@H](c2c(O)cc(O)c3c(=O)cc(-c4ccccc4Cl)oc23)[C@@H]1CO ?
Key: 94.7

Exercise: Return reported cell viability; argument: CNCC(O)c1ccc(OC(=O)C(C)(C)C)c(OC(=O)C(C)(C)C)c1 (stereo not given)
Key: 94.1

Exercise: I'd like to know its cell viability. The molecule in question is C[C@@H]1CC[C@@]2(NC1)O[C@H]1C[C@H]3[C@@H]4CC=C5C[C@@H](O[C@@H]6O[C@H](CO)[C@@H](O[C@@H]7O[C@@H](C)[C@H](O)[C@@H](O)[C@H]7O)[C@H](O)[C@H]6O[C@@H]6O[C@@H](C)[C@H](O)[C@@H](O)[C@H]6O)CC[C@]5(C)[C@H]4CC[C@]3(C)[C@H]1[C@@H]2C
Key: 102

---

# reported cell viability; entries follow
System: HepG2
test_description: cell viability relative to DMSO; higher = less toxic
conditions: 72 h; 1000 nM
Please answer using a numeric value trailed by its unit.

molecule	study_target	cell viability
CC(=O)[C@H]1CC[C@H]2[C@@H]3CC[C@H]4C[C@H](O)CC[C@]4(C)[C@H]3C(=O)C[C@]12C [alfaxalone]	HepG2	96.1%
Cc1ccc(O)c([C@H](CCN(C(C)C)C(C)C)c2ccccc2)c1 [tolterodine]	HepG2	105%
Cc1noc(NS(=O)(=O)c2ccc(N)cc2)c1C [sulfafurazole]	HepG2	102%

Exercise: Lab note: need cell viability with HepG2 for entry COc1ccc(C[C@H]2NC[C@H](O)[C@H]2OC(C)=O)cc1 [anisomycin] , please look it up.
Key: 11.8%

Exercise: Test system HepG2; read-out cell viability; what value for CC(=O)OCC(=O)[C@@]1(O)CC[C@H]2[C@@H]3CCC4=CC(=O)C=C[C@]4(C)[C@H]3[C@@H](O)C[C@@]21C [prednisolone-acetate] ?
Key: 90.9%

Exercise: Checklist item: cell viability tested on HepG2, entry COc1cc(OC2CCN(C)CC2)ccc1Nc1ncc2c(n1)n(C1CCCC1)c(=O)n2C [AZ3146] , value?
Key: 96.1%

Exercise: Notebook: pull reported cell viability for HepG2, entry CCCCCCCCNC(C)C(O)c1ccc(SC(C)C)cc1 (stereo not drawn) [suloctidil]
Key: 119%

Exercise: Give recorded cell viability with HepG2 for the following molecule: O=C(NCCO)c1cc(C(=O)NCCO)cc(C(=O)NCCO)c1 [LM-22A4]
Key: 97.5%

---

Tested on: Vero E6
test_description: cell viability relative to DMSO; higher = less toxic
conditions: 72 h; 1 nM
readout_name: cell viability (%)
Could you give me the number in %? Just the number is fine.

// below: answered compounds
compound	quantity_unit	reading
O=C(NCCO)c1cc(C(=O)NCCO)cc(C(=O)NCCO)c1	%	105
C=CCN(C)CCCCCCOc1ccc(C(=O)c2ccc(Br)cc2)c(F)c1	%	104
O=C1C(Cl)=C(N2CCOCC2)C(=O)N1c1ccc(Cl)c(Cl)c1	%	102
CC(=O)[C@H]1CC[C@H]2[C@@H]3CC[C@H]4C[C@H](O)CC[C@]4(C)[C@H]3C(=O)C[C@]12C	%	99.6
COc1ccc(CC2NCCc3cc(OC)c(OC)cc32)cc1OC (configuration not stated) [tetrahydropapaverine]	%	94.3
O=C(CC12CC3CC(CC(C3)C1)C2)Nc1cccc2nc(NCCNCCO)ccc12	%	96

Exercise: Using the record for CS(=O)(=O)Oc1ccc2c(NC(N)=O)c(C(=O)c3ccc(Cl)cc3Cl)oc2c1 , report its cell viability.
Key: 98.6

Exercise: Which cell viability value belongs to c1ccc2c(Cc3c[nH]c4ccccc34)c[nH]c2c1 ?
Key: 99

Exercise: What value of measured cell viability is listed for CC(C)=CCC/C(C)=C/CNCCNC1C2CC3CC(C2)CC1C3 (configuration not stated) ?
Key: 103

Exercise: Which cell viability value belongs to COc1ccc(C(=O)N2CCCc3cc(C4=NNC(=O)SC4C)ccc32)cc1OC (configuration not stated) ?
Key: 103

Exercise: Look up cell viability for this compound: C/C(=N\NC(=O)[C@@H]1C(=O)NC[C@H]1c1ccccc1)c1cccc(Br)c1
Key: 96.3

Exercise: May I ask what cell viability has been recorded for CCCN[C@H]1CCc2nc(N)sc2C1 [pramipexole] ?
Key: 104

Exercise: Item under review: COc1ccc(CNC(=O)c2cc(-c3cncc(C)c3)ncc2-c2nccs2)nc1OC . Reported cell viability?
Key: 103

Exercise: Which measured cell viability value corresponds to CC(C)c1ccc(-c2cc(=O)c3ccccc3o2)cc1 ?
Key: 96.6

Exercise: What does the record list as cell viability for C[C@@H]1CC[C@@]2(NC1)O[C@H]1C[C@H]3[C@@H]4CC=C5C[C@@H](O[C@@H]6O[C@H](CO)[C@@H](O[C@@H]7O[C@@H](C)[C@H](O)[C@@H](O)[C@H]7O)[C@H](O)[C@H]6O[C@@H]6O[C@@H](C)[C@H](O)[C@@H](O)[C@H]6O)CC[C@]5(C)[C@H]4CC[C@]3(C)[C@H]1[C@@H]2C ?
Key: 101

Exercise: Can you share its cell viability? I mean this compound: CCC(=O)O[C@@H](O[P@@](=O)(CCCCc1ccccc1)CC(=O)N1C[C@H](C2CCCCC2)C[C@H]1C(=O)O)C(C)C
Key: 99.8

Exercise: GET /values?readout=cell viability&item= CN1CCN(CCCN2c3ccccc3Sc3ccc(S(=O)(=O)N(C)C)cc32)CC1
Key: 99.3
